tested on: Saccharomyces cerevisiae; experiment: protein stability index of tFT-peptide fusion (C-terminal peptide) (PSI (0-1 scale)); higher = more stable (slower turnover); conditions: genetic background: das1 deletion; temperature: 30 C
Classification field: fulfilled = protein stability index at or over 0.7; not fulfilled = protein stability index under 0.7.

>>> print(df.to_string())
                           sequence_string          label
0    KLAEHGAKKQKI [GCD10 C-terminal 12 aa]      fulfilled
1  MILKVSLECAVS [YDL009C C-terminal 12 aa]  not fulfilled

###

system: Saccharomyces cerevisiae; experiment: protein stability index of tFT-peptide fusion (C-terminal peptide) (PSI (0-1 scale)); higher = more stable (slower turnover); settings: genetic background: wild type; temperature: 30 C
Classification field: yes = protein stability index at or over 0.7; no = protein stability index under 0.7.

                            sequence_string  label
0   EVLAADNTRVPC [YLL067C C-terminal 12 aa]     no
1      VDNFISVLKQGQ [LOS1 C-terminal 12 aa]     no
2  PGLRRQHTRNFL [YMR294W-A C-terminal 12 aa]    yes
3     GNSVNPYNGRIN [SGF73 C-terminal 12 aa]    yes
4      VIDLDNSVAREV [MDL1 C-terminal 12 aa]     no
5      SLRIEAIKKGFV [SPS1 C-terminal 12 aa]     no
6      QCNFSYLESNYF [CTS1 C-terminal 12 aa]    yes

###

tested on: Saccharomyces cerevisiae; experiment: protein stability index of tFT-peptide fusion (C-terminal peptide) (PSI (0-1 scale)); higher = more stable (slower turnover); conditions: genetic background: cdc34-1; temperature: 37 C
Classification field: fulfilled = protein stability index at or over 0.4; not fulfilled = protein stability index under 0.4.

In [3]: df
Out[3]:
    sequence_string     target_or_test_system          label
 0     GPVRSPPSPTPR  Saccharomyces cerevisiae      fulfilled
 1     PAMPTEPKSSSG  Saccharomyces cerevisiae      fulfilled
 2     LALTRAAITHFF  Saccharomyces cerevisiae      fulfilled
 3     LVFLYFHFCCGF  Saccharomyces cerevisiae      fulfilled
 4     GFFCFLYFVVMF  Saccharomyces cerevisiae  not fulfilled
 5     MWFVGLCLHFFM  Saccharomyces cerevisiae      fulfilled
 6     TPVIPLIRVRDC  Saccharomyces cerevisiae      fulfilled
 7     RVFLVLFLILSG  Saccharomyces cerevisiae  not fulfilled
 8     CLFSVLFPLFFR  Saccharomyces cerevisiae  not fulfilled
 9     RCRLYLNVVVLC  Saccharomyces cerevisiae  not fulfilled
10     NCMGLLMPLLIT  Saccharomyces cerevisiae      fulfilled
11     VVFVGRSIVVLT  Saccharomyces cerevisiae      fulfilled
12     GHSALWQVPRLM  Saccharomyces cerevisiae      fulfilled
13     FLGVFFYFLLCV  Saccharomyces cerevisiae  not fulfilled
14     YYVIFHLFSFLI  Saccharomyces cerevisiae      fulfilled
15     VLVSVSLRVCMV  Saccharomyces cerevisiae  not fulfilled
16     IKCVPLVWRLTV  Saccharomyces cerevisiae      fulfilled
17     VRNYWKYVVIFP  Saccharomyces cerevisiae      fulfilled
18     FTFLFPLRLLPL  Saccharomyces cerevisiae  not fulfilled
19     TIYGYEVTRKIG  Saccharomyces cerevisiae      fulfilled
20     QILVSYSFLYFF  Saccharomyces cerevisiae      fulfilled
21     SGLVHVLILGAC  Saccharomyces cerevisiae      fulfilled
22     LFGFYFVRCLVW  Saccharomyces cerevisiae  not fulfilled
23     STSSVMVFLRMC  Saccharomyces cerevisiae      fulfilled
24     RLCLLLCCRLWL  Saccharomyces cerevisiae      fulfilled
25     FAIRMHCLIFRC  Saccharomyces cerevisiae  not fulfilled
26     LIARYTFLFCLC  Saccharomyces cerevisiae      fulfilled
27     VWSWFVIYFFFC  Saccharomyces cerevisiae  not fulfilled
28     CMLGVVRVLVWF  Saccharomyces cerevisiae  not fulfilled
29     FGFSFLHLFIFF  Saccharomyces cerevisiae      fulfilled
30     FVFIFIRVFFFR  Saccharomyces cerevisiae  not fulfilled
31     VLCMSIFIVFGI  Saccharomyces cerevisiae  not fulfilled
32     VLVVVAFVALPR  Saccharomyces cerevisiae  not fulfilled
33     VRELGVGGWRRQ  Saccharomyces cerevisiae      fulfilled
34     WLCVFVFGIFFV  Saccharomyces cerevisiae  not fulfilled
35     GVMICLDLLLSV  Saccharomyces cerevisiae      fulfilled
36     PRTTHTPLLIAS  Saccharomyces cerevisiae      fulfilled
37     TGGGGRVSLGVG  Saccharomyces cerevisiae  not fulfilled
38     ISTRLALCACVC  Saccharomyces cerevisiae  not fulfilled
39     LVRGGLTNLFLF  Saccharomyces cerevisiae      fulfilled
40     HVCKLAMFQWYF  Saccharomyces cerevisiae      fulfilled
41     QWRSWSFATLVT  Saccharomyces cerevisiae  not fulfilled
42     FMCFVLPVFVLV  Saccharomyces cerevisiae  not fulfilled
43     RHIPSIILAHVV  Saccharomyces cerevisiae      fulfilled
44     RRRNQAAHLYSH  Saccharomyces cerevisiae      fulfilled
45     GLSVLLTCIHFV  Saccharomyces cerevisiae      fulfilled
46     SVFGVRARFGSV  Saccharomyces cerevisiae      fulfilled
47     WFSAGSCRWVLC  Saccharomyces cerevisiae      fulfilled
48     RTRVRKTRIRTC  Saccharomyces cerevisiae      fulfilled
49     FLCLLFYLSFFS  Saccharomyces cerevisiae      fulfilled
50     VLYSRFPPPLIA  Saccharomyces cerevisiae      fulfilled
51     ALWFVLISILCL  Saccharomyces cerevisiae  not fulfilled
52     IGFSPSFQLYSA  Saccharomyces cerevisiae      fulfilled
53     CLWNFWVRFLLL  Saccharomyces cerevisiae  not fulfilled
54     SGRKNQRILGLY  Saccharomyces cerevisiae      fulfilled
55     PFFSSLKYRRDH  Saccharomyces cerevisiae      fulfilled
56     PPVAYVCHLYVT  Saccharomyces cerevisiae      fulfilled
57     ALFVGVVLLVCW  Saccharomyces cerevisiae  not fulfilled
58     VIVKSRTTLYIS  Saccharomyces cerevisiae      fulfilled
59     MALAVRVVICGA  Saccharomyces cerevisiae  not fulfilled
60     AAFLGVLCWCWG  Saccharomyces cerevisiae      fulfilled
61     LLVLRQYFFFFV  Saccharomyces cerevisiae      fulfilled
62     YLYSSSPWILHG  Saccharomyces cerevisiae      fulfilled
63     CRLATILRITAL  Saccharomyces cerevisiae      fulfilled
64     SYRFFLFLAVFV  Saccharomyces cerevisiae      fulfilled
65     LPWLLLISFSYR  Saccharomyces cerevisiae  not fulfilled
66     MLCVFVFIWYFV  Saccharomyces cerevisiae  not fulfilled
67     LLSGLVFVFVLG  Saccharomyces cerevisiae  not fulfilled
68     TTGLLPSAYIWS  Saccharomyces cerevisiae      fulfilled
